Origin of measurements: patent US8563714B2

Below is a list of entries, each paired with its recorded EC50 value.
# targetOrSystem: human FPRL2 (Homo sapiens)
# Sequence (P25089 whole entry): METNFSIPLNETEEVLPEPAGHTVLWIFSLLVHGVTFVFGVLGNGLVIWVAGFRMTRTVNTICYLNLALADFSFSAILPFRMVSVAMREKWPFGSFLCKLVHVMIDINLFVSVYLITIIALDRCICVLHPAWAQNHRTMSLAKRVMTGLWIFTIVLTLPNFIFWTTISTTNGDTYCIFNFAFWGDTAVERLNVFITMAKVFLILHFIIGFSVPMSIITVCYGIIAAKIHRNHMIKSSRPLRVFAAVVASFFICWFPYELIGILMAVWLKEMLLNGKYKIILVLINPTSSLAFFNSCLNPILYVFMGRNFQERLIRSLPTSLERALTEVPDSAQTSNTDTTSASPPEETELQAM
# assayProcedure: Intracellular calcium measurements (FLIPR), agonistic activity in HEK293-hFPRL2-Gα16 cells
# measurementContext: Fluo-4 calcium FLIPR, normalized to GLY14-Humanin 100 nM

compound	targetOrSystem	EC50
COc1ccc(C)cc1CNC(=O)[C@H]1[C@H](C(=O)NCCCCN2CCCC2)[C@H]2C=C[C@@H]1C21CC1 (racemic)	human FPRL2 (Homo sapiens)	180 nM
O=C(CC1CC1)NC[C@H]1[C@H](C(=O)Nc2ccc(Br)cc2)[C@@H]2C=C[C@H]1C21CC1 (racemic)	human FPRL2 (Homo sapiens)	> 14500 nM
CCCCNC(=O)[C@H]1[C@H](C(=O)Nc2ccc(Br)cc2)[C@@H]2C=C[C@H]1C21CC1 (relative stereo)	human FPRL2 (Homo sapiens)	18200 nM
CCN(CC)CCCCNC(=O)[C@H]1[C@H](C(=O)Nc2ccc(Br)cc2)[C@@H]2C=C[C@H]1C21CC1 (racemic)	human FPRL2 (Homo sapiens)	329 nM
CC(C)(CNC(=O)OC(C)(C)C)CNC(=O)[C@H]1[C@H](C(=O)Nc2ccc(Br)cc2)[C@@H]2C=C[C@H]1C21CC1 (racemic)	human FPRL2 (Homo sapiens)	5550 nM
O=C(NCCCCN1CCCCC1)[C@H]1[C@H](C(=O)Nc2ccc(Br)cc2)[C@@H]2C=C[C@H]1C21CC1	human FPRL2 (Homo sapiens)	58 nM
Cc1ccc(F)c(CNC(=O)[C@H]2[C@H](C(=O)NCCCCN3CCCC3)[C@H]3C=C[C@@H]2C32CC2)c1Cl (racemic)	human FPRL2 (Homo sapiens)	478 nM
CN(C)CCCNC(=O)[C@H]1[C@H](C(=O)Nc2ccc(Br)cc2)[C@@H]2C=C[C@H]1C21CC1 (racemic)	human FPRL2 (Homo sapiens)	6360 nM
O=C(NC1CCCNC1)[C@H]1[C@H](C(=O)Nc2ncc(Br)s2)[C@@H]2CC[C@H]1C21CC1 (stereo partly shown)	human FPRL2 (Homo sapiens)	354 nM
O=C(NC[C@H]1[C@H](C(=O)Nc2ccc(Br)cc2)[C@@H]2C=C[C@H]1C21CC1)c1cccc(F)c1Cl (racemic)	human FPRL2 (Homo sapiens)	2230 nM
O=C(NCCCCN1CCCC1)[C@H]1[C@H](C(=O)Nc2ccc(C(F)(F)F)cc2)[C@@H]2C=C[C@H]1C21CC1 (racemic)	human FPRL2 (Homo sapiens)	105 nM
O=C(NCCCCN1CCCC1)[C@H]1[C@H](C(=O)NCc2ccc(Cl)cc2)[C@@H]2C=C[C@H]1C21CC1 (racemic)	human FPRL2 (Homo sapiens)	65 nM
O=C(NCC1CCCO1)C1C(C(=O)Nc2ccc(Br)cc2)C2CCC1C21CC1 (mixture of isomers)	human FPRL2 (Homo sapiens)	5250 nM
O=C(NCCCCN1CCCC1)[C@H]1[C@H](C(=O)Nc2ncc([N+](=O)[O-])s2)[C@@H]2C=C[C@H]1C21CC1 (racemic)	human FPRL2 (Homo sapiens)	3440 nM
NCCNC(=O)[C@H]1[C@H](C(=O)Nc2ccc(Br)cc2)[C@@H]2C=C[C@H]1C21CC1 (racemic)	human FPRL2 (Homo sapiens)	4910 nM
O=C(NCCCCN1CCCC1)[C@H]1[C@H](C(=O)Nc2cnc(Br)c(F)c2)[C@@H]2CC[C@H]1C21CC1	human FPRL2 (Homo sapiens)	66 nM
O=C(NCCCCN1CCCC1)[C@H]1[C@H](C(=O)NCc2ccc(F)c(C(F)(F)F)c2)[C@@H]2C=C[C@H]1C21CC1 (racemic)	human FPRL2 (Homo sapiens)	366 nM
O=C(NCCCCN1CCCC1)[C@H]1[C@H](C(=O)NCc2ccc(Br)cc2F)[C@@H]2C=C[C@H]1C21CC1	human FPRL2 (Homo sapiens)	264 nM
CC(C)Oc1ccc(CNC(=O)[C@H]2[C@H](C(=O)NCCCCN3CCCC3)[C@H]3C=C[C@@H]2C32CC2)cc1 (racemic)	human FPRL2 (Homo sapiens)	197 nM
CC(C)CCNC(=O)[C@H]1[C@H](C(=O)Nc2ccc(Br)cc2)[C@@H]2C=C[C@H]1C21CC1 (racemic)	human FPRL2 (Homo sapiens)	6190 nM
Cc1cc(Br)ccc1NC(=O)[C@H]1[C@H](C(=O)NCCCCN2CCCC2)[C@H]2C=C[C@@H]1C21CC1	human FPRL2 (Homo sapiens)	193 nM
NCCCCCNC(=O)[C@H]1[C@H](C(=O)Nc2ccc(Br)cc2)[C@H]2C=C[C@@H]1C21CC1 (relative stereo)	human FPRL2 (Homo sapiens)	255 nM
Cc1nonc1CNC(=O)[C@H]1[C@H](C(=O)NCCCCN2CCCC2)[C@H]2C=C[C@@H]1C21CC1 (racemic)	human FPRL2 (Homo sapiens)	948 nM
NCCCNC(=O)[C@H]1[C@H](C(=O)Nc2ccc(Br)cc2)[C@@H]2C=C[C@H]1C21CC1 (racemic)	human FPRL2 (Homo sapiens)	3920 nM
CC1CCC(NC(=O)C2C(C(=O)NCCCCN3CCCC3)C3C=CC2C32CC2)CC1 (mixture of isomers)	human FPRL2 (Homo sapiens)	613 nM
